Species: Homo sapiens
protocol-text: Antiproliferative activity against SQ-20B cancer cells
Type: functional
conditions-used: Cancer cell lines
IC50 values for the compounds below.
Record the value in µM, omitting the unit from your answer.

The following compounds have reported results that may help.
O=C(CS)NCCCCCC(=O)Nc1cnc2ccccc2c1    100
O=C(CS)NCCCCCC(=O)Nc1cccc2cccnc12    31
CN(C)c1ccc(C(=O)NCCCCCNC(=O)CS)cc1    100

// switching to the query compound
Q: Could you share which IC50 value was measured for O=C(CS)NCCCCCNC(=O)c1ccc(-c2ccccc2)cc1 ?
Ans: 130

---

Tested on: MCF7
protocol-text: Antiproliferative activity against MCF-7 cancer cell line
Type: functional, cell-based
conditions-used: Homo sapiens
outcome-measure: pIC50
Scale: pIC50 equals -log10([C]), with [C] in mol/L.

The cases that follow already have their pIC50 on record.
O=C(CS)NCCCCCC(=O)Nc1cnc2ccccc2c1    4.10
CN(C)c1ccc(C(=O)NCCCCCNC(=O)CS)cc1    3.90

Switching to the query record.
Q: Dear colleague, I am looking for the recorded pIC50 of the following compound: O=C(CS)NCCCCCC(=O)Nc1cccc2cccnc12
Ans: 4.38

This collection of values is drawn from ChEMBL document CHEMBL1142006.
